tested on: HCT116; conditions: 72 h; ICRF193 200 nM
Where a name gives a salt, the structure may show the parent alone.
Some compounds, each annotated with its measured IC50 cell viability.
reportedEndpoint: IC50 cell viability

>>> result("CN1CCN(c2c(F)cc3c(=O)c(C(=O)O)cn4c3c2OCN4C)CC1")
"> 45.8 µM"
>>> result("OC[C@H]1O[C@@H](c2ccc(Cl)c(Cc3ccc(O[C@H]4CCOC4)cc3)c2)[C@H](O)[C@@H](O)[C@@H]1O")
"> 45.8 µM"
>>> result("CC(C)c1cc2c(cc1S(=O)(=O)O)[C@@]1(C)CCC[C@@](C)(C(=O)O)[C@@H]1CC2")
"0.103 µM"
>>> result("COc1cc2c3cc1Oc1cc(ccc1O)C[C@@H]1c4c(cc(OC)c(O)c4Oc4ccc(cc4)C[C@@H]3N(C)CC2)CC[N+]1(C)C [(+)-Tubocurarine chloride hydrochloride]")
"> 45.8 µM"
>>> result("O=S1(=O)OC(c2ccc(O)cc2)(c2ccc(O)cc2)c2ccccc21")
"> 45.8 µM"
>>> result("Oc1ccccc1")
"> 45.8 µM"
>>> result("CN1CCN(CCCN2c3ccccc3Sc3ccc(S(=O)(=O)N(C)C)cc32)CC1 [Thioproperazine dimethanesulfonate]")
"20.6 µM"
>>> result("O=C(O)CNC(=O)CNC(=O)CNC(=O)CSC(=O)c1ccccc1 [Betiatide]")
"> 45.8 µM"
